Could you please report measured Tmax for the items listed next?
- assay.notes: Pharmacokinetic experiment in cynomolgus monkey
- Assay type: in vivo, cynomolgus monkeys
- condition.set: cynomolgus monkey, plasma; female cynomolgus monkeys, oral, 3 mg/kg
- Protocol: Three female cynomolgus monkeys of 3.0-3.5 kg were taken and orally administered with the test compound at a dosage of 3 mg/kg; after the administration, blood was collected at the time points of 0.083, 0.25, 0.5, 1, 2, 4, 6, 8, 24, 32 and 48 hours. A standard curve was established within an appropriate range based on the sample concentration, and AB SCIEX API 5000 LC-MS/MS was used to determine the concentration of the test compounds in the plasma sample in the MRM mode. […]
Only the number, expressed in h, is required.

What value of measured Tmax is listed for `Cc1c(C(=O)Nc2ccc([S@SP2](C)(=O)=O)c(F)c2)cn(CCO)c1-c1ccccc1C(F)(F)F` ?
5.3

What value of measured Tmax is listed for Cc1c(C(=O)Nc2ccc(S(C)(=O)=O)cc2)cn(CCO)c1-c1ccccc1C(F)(F)F (atropisomer, axis not shown) [CS-3150, Esaxerenone, reference compound] ?
1.67
